// data source = patent US20250129086A1

Tested on: PC-9 (EGFR exon 19 deletion)
Test: Cell antiproliferative assay (CTG, 72 h), PC-9
Format: cell-based, human
Conditions: Homo sapiens, PC-9, 72 h, Table 2, PC-9 cells
Experimental: Test Example 1 Cell Antiproliferative Assay H1975: with EGFR: L858R/T790M double mutation; PC-9 with EGFR exon 19 deletion, HCC827 with exon 19 deletion mutation. CellCounting-Lite2.0, Trypsin EDTA, 37° C. […] • (A)96-well plates were incubated in an incubator for 72 h. The effect of the compounds was observed under an inverted microscope. • (B)25 μl of CTG solution was added to each well, the plate was put on shaker for 10 minutes and the […] of each well was read. […]
The molecules listed here are annotated with their IC50.

Example entries begin here.
molecule	IC50
COc1cc(N2CCN(C(=O)CN3CCC(c4ccc(NC5CCC(=O)NC5=O)cc4)CC3)CC2)ccc1Nc1ncc(Cl)c(Nc2ccccc2C(=O)N(C)C)n1 (stereo not shown)	100 to 1000 nM
C=CC(=O)Nc1cc(Nc2ncc(C(F)(F)F)c(Nc3ccccc3)n2)c(OC)cc1N1CCN(C(=O)CN2CCC(c3ccc(NC4CCC(=O)NC4=O)cc3)CC2)CC1 (stereo not shown)	100 to 1000 nM
COc1cc(N2CCC(N(C)C(=O)CN3CCC(c4ccc(NC5CCC(=O)NC5=O)cc4)CC3)CC2)ccc1Nc1ncc(Cl)c(Nc2ccccc2C(C)=O)n1 (stereo not shown)	100 to 1000 nM
COc1cc(N2CCC[C@H](NC(=O)CN3CCC(c4ccc(NC5CCC(=O)NC5=O)cc4)CC3)C2)ccc1Nc1ncc(Cl)c(Nc2ccccc2C(C)=O)n1 (stereo partly shown)	≥ 1000 nM
COc1cc(N2CCN(C(=O)CN3CCC(c4ccc(NC5CCC(=O)NC5=O)cc4)CC3)CC2)ccc1Nc1ncc(Cl)c(Nc2ccccc2OC)n1 (stereo not shown)	100 to 1000 nM

Q: Find the measured IC50 of COc1cc(N2CCN(C(=O)CN3CCC(c4ccc(NC5CCC(=O)NC5=O)cc4)CC3)CC2)c(C(F)(F)F)cc1Nc1ncc(Br)c(Nc2ccccc2C(C)=O)n1 (stereo not shown) and report it.
Ans: 10 to 100 nM

Q: Find the measured IC50 of COc1cc(N2CCN(C(=O)CN3CCC(c4ccc(NC5CCC(=O)NC5=O)cc4)CC3)C(C)C2)ccc1Nc1ncc(Cl)c(Nc2ccccc2)n1 (stereo not shown) and report it.
Ans: ≥ 1000 nM

Q: Find the measured IC50 of COc1cc(N2CCN(CCC3CCN(c4ccc5c(c4)C(=O)N(C4CCC(=O)NC4=O)C5=O)CC3)CC2)ccc1Nc1ncc(Cl)c(Nc2ccccc2C(C)=O)n1 (stereo not shown) and report it.
Ans: ≥ 1000 nM
